- test-system: cleaved soluble TMPRSS2^S441A (TMPRSS2^S441A-Cl) (human, UniProt O15393 107-255; O15393 256-492, S441A)
- Sequence (O15393 107-255, chain 1 of 2): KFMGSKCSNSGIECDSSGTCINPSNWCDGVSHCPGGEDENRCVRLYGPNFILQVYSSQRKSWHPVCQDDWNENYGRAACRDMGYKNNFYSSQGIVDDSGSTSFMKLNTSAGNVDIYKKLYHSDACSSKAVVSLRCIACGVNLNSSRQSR
- Sequence (O15393 256-492 S441A, chain 2 of 2): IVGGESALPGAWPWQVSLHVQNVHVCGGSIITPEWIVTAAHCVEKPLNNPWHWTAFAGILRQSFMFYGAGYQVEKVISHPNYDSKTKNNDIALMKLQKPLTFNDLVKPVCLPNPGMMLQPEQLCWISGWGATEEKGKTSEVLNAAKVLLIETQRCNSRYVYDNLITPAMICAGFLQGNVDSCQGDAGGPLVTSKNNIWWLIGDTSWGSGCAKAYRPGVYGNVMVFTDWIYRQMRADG
- method-notes: BLI

binder	binding result
HKU1B RBD (residues 330-614) L510R (domain or fragment) DNWLNNVSVPSPLNWERRIFSNCNFNLSTLLRLVHVDSFSCNNLDKSKIFGSCFNSITVDKFAIPNRRRDDLQLGSSGFLQSSNYKIDISSSSCQLYYSLPLVNVTINNFNPSSWNRRYGFGSFNLSSYDVVYSDHCFSVNSDFCPCADPSVVNSCAKSKPPSAICPAGTKYRHCDLDTTRYVKNWCRCSCLPDPISTYSPNTCPQKKVVVGIGEHCPGLGINEEKCGTQLNHSSCFCSPDAFLGWSFDSCISNNRCNIFSNFIFNGINSGTTCSNDLLYSNTEI	binds
HKU1B RBD (residues 330-614) Y528A (domain or fragment) DNWLNNVSVPSPLNWERRIFSNCNFNLSTLLRLVHVDSFSCNNLDKSKIFGSCFNSITVDKFAIPNRRRDDLQLGSSGFLQSSNYKIDISSSSCQLYYSLPLVNVTINNFNPSSWNRRYGFGSFNLSSYDVVYSDHCFSVNSDFCPCADPSVVNSCAKSKPPSAICPAGTKYRHCDLDTTLYVKNWCRCSCLPDPISTASPNTCPQKKVVVGIGEHCPGLGINEEKCGTQLNHSSCFCSPDAFLGWSFDSCISNNRCNIFSNFIFNGINSGTTCSNDLLYSNTEI	binds
HKU1B RBD (residues 330-614) S529A (domain or fragment) DNWLNNVSVPSPLNWERRIFSNCNFNLSTLLRLVHVDSFSCNNLDKSKIFGSCFNSITVDKFAIPNRRRDDLQLGSSGFLQSSNYKIDISSSSCQLYYSLPLVNVTINNFNPSSWNRRYGFGSFNLSSYDVVYSDHCFSVNSDFCPCADPSVVNSCAKSKPPSAICPAGTKYRHCDLDTTLYVKNWCRCSCLPDPISTYAPNTCPQKKVVVGIGEHCPGLGINEEKCGTQLNHSSCFCSPDAFLGWSFDSCISNNRCNIFSNFIFNGINSGTTCSNDLLYSNTEI	binds
